Every entry's value here was drawn from the supplement of paper PMC11732987.

target.entity: OTUD6B (UniProt Q8N6M0)
Sequence (Q8N6M0 whole entry, the tested form may be a part): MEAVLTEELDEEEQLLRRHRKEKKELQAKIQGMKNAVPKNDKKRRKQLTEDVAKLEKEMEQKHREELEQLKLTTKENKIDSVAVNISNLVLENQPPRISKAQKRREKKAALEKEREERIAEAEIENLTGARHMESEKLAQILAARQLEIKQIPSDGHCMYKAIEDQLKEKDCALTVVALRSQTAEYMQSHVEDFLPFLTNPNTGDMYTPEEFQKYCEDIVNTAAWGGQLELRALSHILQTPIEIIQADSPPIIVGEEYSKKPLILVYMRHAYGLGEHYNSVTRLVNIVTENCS
protocol.notes: log2 ratio of Biotin-Ahx-Ub-VS probe labelling (fragment/DMSO); higher = less target engagement (more negative = stronger competition), active = hit call of the paper (q ≤ 0.05, log2 ratio ≤ -1)
protocol.conditions: compound concentration: 200 uM; treatment time: 3 h
I would appreciate it if you labelled entries criterion met when log2 ratio of Biotin-Ahx-Ub-VS probe labelling is -0.1 or higher, otherwise criterion not met.

// known answers, use as guide
| molecule | answer.label |
| --- | --- |
| Cc1conc1C1CN(C(=O)CCl)C1 | criterion not met |
| COc1ccc(C2CCCN2C(=O)CCl)c(OC)c1 (centres undefined) | criterion not met |
| Cl.O=C(CCl)N1CCC(Cc2nccs2)C1 (centres undefined) | criterion not met |
| CN(C)C(=O)c1ccc(NC(=O)CCl)cc1 | criterion not met |
| COc1ccc(CN(C)C(=O)CCl)cc1 | criterion not met |

Exercise: Could you tell me if the measured log2 ratio of Biotin-Ahx-Ub-VS probe labelling of Cc1cccc(NC(=O)CCl)c1C reaches -0.1 or more?
Key: criterion not met

Exercise: Is log2 ratio of Biotin-Ahx-Ub-VS probe labelling for O=C(CCl)N1CCc2ccccc2C(O)C1 (centres undefined) at or above -0.1?
Key: criterion not met

Exercise: Evaluate CN(CCC(O)c1ccc(Br)cc1)C(=O)CCl (centres undefined) : log2 ratio of Biotin-Ahx-Ub-VS probe labelling at minimum -0.1?
Key: criterion met

Exercise: Does the molecule CC(NC(=O)CCl)c1cccc2ccccc12 (centres undefined) have recorded log2 ratio of Biotin-Ahx-Ub-VS probe labelling that is -0.1 or more?
Key: criterion met
